# Measured Target: recombinant human PCSK9 (Homo sapiens, UniProt Q8NBP7)
# Sequence (Q8NBP7 153-692): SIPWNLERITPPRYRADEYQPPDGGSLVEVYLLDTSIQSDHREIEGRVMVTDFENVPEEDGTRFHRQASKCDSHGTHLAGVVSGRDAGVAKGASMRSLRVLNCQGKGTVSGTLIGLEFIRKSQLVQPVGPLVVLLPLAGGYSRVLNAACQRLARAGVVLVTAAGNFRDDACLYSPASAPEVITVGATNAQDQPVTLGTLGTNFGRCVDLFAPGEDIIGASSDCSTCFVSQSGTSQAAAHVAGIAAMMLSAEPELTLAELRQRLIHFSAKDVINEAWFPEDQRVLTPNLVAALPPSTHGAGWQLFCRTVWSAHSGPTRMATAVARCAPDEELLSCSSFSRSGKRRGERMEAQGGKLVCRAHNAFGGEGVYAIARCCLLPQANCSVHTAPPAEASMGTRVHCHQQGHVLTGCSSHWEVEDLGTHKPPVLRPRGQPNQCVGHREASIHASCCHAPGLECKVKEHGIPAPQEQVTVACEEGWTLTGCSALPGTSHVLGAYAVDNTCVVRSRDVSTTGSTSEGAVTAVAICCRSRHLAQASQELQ
# Experiment Summary: Direct binding measurement by backscatter interferometry
# Details: 6-point binding curve, ±8 nM, r^2 of 0.86
Reported Endpoint: Kd (nM)
Express the result in nM but write the number alone.

Q: Entry under review: C/C(=N\Nc1nnn[nH]1)C(=O)N1CCC(c2ccccc2)CC1 . Reported Kd?
Ans: 24
